Can you tell me APOE RNA (% control) Cortex for the items I'm about to list?
System: human APOE RNA
Assay: Potency (dose response, ED50) in APOE C57BL/6NTac-Apoeem7250 knock-in mice, 4 weeks (Example 14)
Assay type: in vivo
Details: cortex, ICV dose 700 μg
Strand notation (5' to 3'): a small letter for the sugar, then the base; units joined by * are phosphorothioate-linked, units joined directly phosphodiester-linked; [ ] holds rarer units or linkages, { } end groups; capitals alone tell only the bases. [ms] = mesyl phosphoramidate linkage; e = 2'-O-(2-methoxyethyl) (MOE); k = constrained ethyl (cEt); [5mC] = 5-methylcytosine; d = 2'-deoxy (DNA)
Please give the number followed by its unit.

>>> result("1693105: 6-10-4 MOE gapmer CTTGGTGAATCTTTATTAAA, linkages sosssszzzssssszssss (e[5mC]*eTeT*eG*eG*eT*dG[ms]dA[ms]dA[ms]dT*d[5mC]*dT*dT*dT*dA[ms]dT*eT*eA*eA*eA) [compound 1693105]")
"48 % control"
>>> result("1778131: modified oligonucleotide complementary to human APOE RNA (eA*e[5mC]eTeTeGkG*dT*dG[ms]dA[ms]dA*dT*d[5mC]*dT*dT*dT*dA[ms]kTkT*eA*eA; antisense) [compound 1778131]")
"29 % control"
>>> result("1778154: modified oligonucleotide complementary to human APOE RNA (e[5mC]*eT*eTeGeGeT*dG[ms]dA[ms]dA*dT*d[5mC]*dT*dT*dT*dA*dT*kTkAeA*eA; antisense) [compound 1778154]")
"27 % control"
>>> result("1746809 (k[5mC]*dT[ms]kT*dG[ms]kG*dT[ms]dG[ms]dA[ms]dA[ms]dT*d[5mC]*dT*dT*dT*dA[ms]dT*dT[ms]kA*kA*kA; antisense) [Compound 1746809]")
"41 % control"
>>> result("1785598: modified oligonucleotide complementary to human APOE RNA (k[5mC]*kT*kT*dG[ms]dG[ms]dT[ms]dG[ms]dA[ms]dA[ms]dT*d[5mC]*dT*dT*dT*dA*dT[ms]kT*kA*dA[ms]kA; antisense) [compound 1785598]")
"23 % control"

Consider the following items and state reported APOE RNA (% control) Cortex for each.
1. Aes^mCeoTeoTesGesGksTdsGdzAdzAdzTds^mCdsTdsTdsTdsAdzTksTksAesAe (eA*e[5mC]eTeT*eG*kG*dT*dG[ms]dA[ms]dA[ms]dT*d[5mC]*dT*dT*dT*dA[ms]kT*kT*eA*eA) [Compound No. 1757576]
2. 1778130: modified oligonucleotide complementary to human APOE RNA (eA*e[5mC]eTeTeG*kG*dT*dG[ms]dA[ms]dA*dT*d[5mC]*dT*dT*dT*dA[ms]kTkT*eA*eA; antisense) [compound 1778130]
3. 1757575 (eA*e[5mC]eTeT*kG*kG*dT*dG[ms]dA[ms]dA[ms]dT*d[5mC]*dT*dT*dT*dA[ms]kT*eT*eA*eA; antisense) [Compound 1757575]

// result
["31 % control", "37 % control", "30 % control"]

---

Tested on: human APOE RNA
Experiment: Activity in APOE C57BL/6NTac-Apoeem7250 knock-in mice, single ICV bolus, 20 weeks (Example 13)
Type: in vivo
Details: cortex; single ICV bolus 300 μg; 20 weeks post treatment; normalized to mouse Ppia
Strand notation (5' to 3'): a small letter for the sugar, then the base; units joined by * are phosphorothioate-linked, units joined directly phosphodiester-linked; [ ] holds rarer units or linkages, { } end groups; capitals alone tell only the bases. [ms] = mesyl phosphoramidate linkage; e = 2'-O-(2-methoxyethyl) (MOE); k = constrained ethyl (cEt); [5mC] = 5-methylcytosine; d = 2'-deoxy (DNA)
Can you tell me APOE RNA (% control) Cortex for the items I'm about to list?
Give bare numbers, in % control.

>>> readoutnumber("1779701 (e[5mC]*eTeT*kG*kG*dT[ms]dG[ms]dA[ms]dA[ms]dT*d[5mC]*dT*dT*dT*dA[ms]dT*eT*eA*eA*eA; antisense) [Compound 1779701]")
56
>>> readoutnumber("1779706 (e[5mC]*eTeTkGkG*dT[ms]dG[ms]dA[ms]dA*dT*d[5mC]*dT*dT*dT*dA*dT*eT*eA*eA*eA; antisense) [Compound 1779706]")
46

Field: next substance
// query Answer with reported APOE RNA (% control) Cortex of 1766559 (eT*eTeGeGeT*dG[ms]dA[ms]dA[ms]dT*d[5mC]*dT*dT*dT[ms]dA[ms]dT*kTkAeA*eA*e[5mC]; antisense) [Compound 1766559]
// result 100

Attribution: patent US20250353873A1
